compounds and their reported IC50 ratio (resistant vs sensitive cells)
Tested on: A2780/Adr (drug resistant)
assay: Fluorometric microculture cytotoxicity assay
Type: cell-based, human
recordedConditions: A2780/Adr vs A2780
measurementName: IC50 ratio (resistant vs sensitive cells)

COc1ccc2[nH]cc(CCNc3nccc(Nc4cccc5c4ccn5C)n3)c2c1 ... 0.96
CCC[C@H](Nc1nc(-c2ccc(NC(=O)NCC)c(OC)c2)ncc1C)c1cccnc1 ... 3.35
CC[C@]1(O)C[C@H]2CN(CCc3c([nH]c4ccccc34)[C@@](C(=O)OC)(c3cc4c(cc3OC)N(C=O)[C@H]3[C@@](O)(C(=O)OC)[C@H](OC(C)=O)[C@]5(CC)C=CCN6CC[C@]43[C@@H]65)C2)C1 ... 955

* * *

System: A2780/Adr (drug resistant)
assay: Fluorometric microculture cytotoxicity assay
Assay type: cell-based, human
recordedConditions: A2780/Adr (drug resistant) ovarian carcinoma, 72 h
pIC50: −log10 of the molar value.
measurementName: pIC50

COc1ccc2[nH]cc(CCNc3nccc(Nc4cccc5c4ccn5C)n3)c2c1 [NOV202] ... 8.64
